# System: P388 leukemia ip, CD2F1 mice, survival T/C
# Test Description: NCI In Vivo Anticancer Drug Screen. Data for tumor model P388 Leukemia (intraperitoneal) in CD2F1 (CDF1) mice
# Experimental Context: endpoint: median survival time; dose: 100.0 mg/kg/injection; schedule: Q01DX009 (ip); vehicle: other; higher = longer survival
Inconclusive results and toxic doses are left out.
Property: T/C

Record excerpt, results attached:
- Compound: "COCCCn1nnc2ccccc2c1=O"
  Target: "P388 leukemia ip, CD2F1 mice, survival T/C"
  T/C: "104 % of control"
- Compound: "COc1ccc(/C=C2\\N=C(c3ccccc3)OC2=O)c(OCc2ccccc2)c1"
  Target: "P388 leukemia ip, CD2F1 mice, survival T/C"
  T/C: "88 % of control"
- Compound: "CC1=C(C#N)C(C)(CCl)C(C#N)=C(C)N1C"
  Target: "P388 leukemia ip, CD2F1 mice, survival T/C"
  T/C: "103 % of control"
- Compound: "Cc1nccc(N[N+](=O)[O-])c1C"
  Target: "P388 leukemia ip, CD2F1 mice, survival T/C"
  T/C: "100 % of control"
- Compound: "O=C(O)/C=N/NS(=O)(=O)c1ccc(Cl)cc1"
  Target: "P388 leukemia ip, CD2F1 mice, survival T/C"
  T/C: "99 % of control"
- Compound: "CCCCCCCCCCC(=O)CCCCCC"
  Target: "P388 leukemia ip, CD2F1 mice, survival T/C"
  T/C: "100 % of control"

API: the following record is the query input.
Item under review: CC(=O)OCC1OC(OC(C)=O)C(NC(=O)C(C)NC(=O)OCc2ccccc2)C(OC(C)=O)C1OC(C)=O (configuration not stated) . Reported T/C?
104 % of control

* * *

# System: P388 leukemia ip, CD2F1 mice, survival T/C
# Test Description: NCI In Vivo Anticancer Drug Screen. Data for tumor model P388 Leukemia (intraperitoneal) in CD2F1 (CDF1) mice
# Experimental Context: endpoint: median survival time; dose: 100.0 mg/kg/injection; schedule: Q01DX009 (ip); vehicle: saline with Tween-80; higher = longer survival
Inconclusive results and toxic doses are left out.
Below, each entry is listed with its recorded T/C.

Item under review: "Cc1o[nH]c(=O)c1C" . Reported T/C?
100 % of control

Item under review: "Cn1c(N)c(N=Nc2ccccc2Cl)c(=O)n(C)c1=O" . Reported T/C?
99 % of control

* * *

# Test system: P388 leukemia ip, CD2F1 mice, survival T/C
# Test Description: NCI In Vivo Anticancer Drug Screen. Data for tumor model P388 Leukemia (intraperitoneal) in CD2F1 (CDF1) mice
# Experimental Context: endpoint: median survival time; dose: 200.0 mg/kg/injection; schedule: Q01DX005 (ip); vehicle: Klucel (hydroxypropylcellulose) (HPC); higher = longer survival
Inconclusive results and toxic doses are left out.
Property: T/C

Record excerpt, results attached:
- Compound: "Cn1c(C(=O)NN)cc2cc(OCc3ccccc3)ccc21"
  Result: "98 % of control"
- Compound: "CCCc1c(Cl)[nH]c(=O)n(C)c1=O"
  Result: "97 % of control"
- Compound: "O=C1c2ccccc2C(=O)N1/N=C/c1ccc(O)cc1"
  Result: "100 % of control"

API: the following record is the query input.
Item under review: CCOC(=O)C1=C(c2ccccc2)OC(N)=C(C#N)C1c1ccccc1Cl (stereo not given) . Reported T/C?
107 % of control

Where do the numbers come from? From PubChem BioAssay AID330.
